FYI, the data here is from the supplement of paper PMC13172266.

Reported values of cell proliferation for individual entries
Test system: U2932 TK216-resistant clone 2
method summary: cell proliferation relative to vehicle (% of vehicle); higher = less growth inhibition
experimental conditions: 500 nM; 72 h
Structures can show the parent of a compound that is named as a salt.
Answer with a bare number; do not write a unit.

Tell me reported cell proliferation for COc1ccc(C2=N[C@H](c3ccc(Cl)cc3)[C@H](c3ccc(Cl)cc3)N2C(=O)N2CCNC(=O)C2)c(OC(C)C)c1 , tested with U2932 TK216-resistant clone 2.
96.6

Tell me reported cell proliferation for CN1CCN(Cc2ccc(-c3cnc4[nH]cc(-c5ccc6[nH]ccc6c5)c4c3)cc2)CC1 , tested with U2932 TK216-resistant clone 2.
91.2

Tell me reported cell proliferation for COc1cc2c(Oc3ccc(NC(=O)C4(C(=O)Nc5ccc(F)cc5)CC4)cc3F)ccnc2cc1OCCCN1CCOCC1 , tested with U2932 TK216-resistant clone 2.
69.7

Next up:
Tell me reported cell proliferation for NC(=O)c1cccc2cn(-c3ccc([C@@H]4CCCNC4)cc3)nc12 [MK-4827(Niraparib) tosylate] , tested with U2932 TK216-resistant clone 2.
91.7
